molecular target: 5-hydroxytryptamine receptor 1B (Homo sapiens)
Sequence (P28222 whole entry): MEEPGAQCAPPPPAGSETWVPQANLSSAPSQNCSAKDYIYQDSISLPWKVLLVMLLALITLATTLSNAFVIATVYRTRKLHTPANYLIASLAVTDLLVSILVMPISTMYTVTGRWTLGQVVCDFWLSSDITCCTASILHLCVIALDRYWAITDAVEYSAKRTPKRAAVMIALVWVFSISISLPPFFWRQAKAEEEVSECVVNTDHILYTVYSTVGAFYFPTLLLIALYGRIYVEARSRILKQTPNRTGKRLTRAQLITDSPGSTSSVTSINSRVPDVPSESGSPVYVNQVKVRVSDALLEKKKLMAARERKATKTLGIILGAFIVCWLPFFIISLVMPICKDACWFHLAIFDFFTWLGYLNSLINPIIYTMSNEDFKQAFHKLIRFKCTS
pKi: −log10 of the molar value.
So basically: pKi at 8 or higher? That is criterion met. Lower than 8? That is criterion not met.

>>> assigned_category("COc1ccc(NC(=O)N2CCN(c3ccc(C)cc3C)CC2)cc1N1CCN(C)CC1")
"criterion met"

Req: Form field: pKi at least 8? Entry: `Cc1ccccc1N1CCN(C(=O)Oc2ccc(Cl)c(N3CCN(C)CC3)c2)CC1`
Resp: criterion not met

Req: Form field: pKi at least 8? Entry: `COc1ccc(NC(=O)c2ccc(-c3ccc(-c4noc(C)n4)cc3C)cc2)cc1N1CCN(C)CC1`
Resp: criterion met

###

Values of Ki reported for 5-hydroxytryptamine receptor 1D (Homo sapiens, UniProt P28221) appear below.
Numbers only; they are read as nM.

>>> obs_value("Cc1ccccc1N1CCN(C(=O)Oc2ccc(Cl)c(N3CCN(C)CC3)c2)CC1")
3.6
>>> obs_value("COc1ccc(NC(=O)N2CCN(c3ccccc3)CC2)cc1N1CCN(C)CC1")
340
>>> obs_value("COc1cccc(N2CCN(C(=O)Nc3ccc(OC)c(N4CCN(C)CC4)c3)CC2)c1")
70

In the following, a different compound is considered.
Req: Report Ki on 5-hydroxytryptamine receptor 1D (Homo sapiens, UniProt P28221) for this entry: `Cc1ccccc1N1CCN(C(=O)COc2ccc(Cl)c(N3CCN(C)CC3)c2)CC1`
Sequence (P28221 whole entry): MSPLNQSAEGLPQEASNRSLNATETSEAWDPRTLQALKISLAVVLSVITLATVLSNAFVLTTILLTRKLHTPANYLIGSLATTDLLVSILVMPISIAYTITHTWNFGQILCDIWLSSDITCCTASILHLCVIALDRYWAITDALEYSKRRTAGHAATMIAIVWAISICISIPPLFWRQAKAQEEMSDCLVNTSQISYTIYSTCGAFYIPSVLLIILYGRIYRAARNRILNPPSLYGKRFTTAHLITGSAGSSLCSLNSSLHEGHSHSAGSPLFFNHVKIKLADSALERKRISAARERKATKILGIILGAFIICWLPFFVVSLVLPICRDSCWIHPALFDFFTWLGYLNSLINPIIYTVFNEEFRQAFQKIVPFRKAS
Resp: 240

###

Sequence of the target: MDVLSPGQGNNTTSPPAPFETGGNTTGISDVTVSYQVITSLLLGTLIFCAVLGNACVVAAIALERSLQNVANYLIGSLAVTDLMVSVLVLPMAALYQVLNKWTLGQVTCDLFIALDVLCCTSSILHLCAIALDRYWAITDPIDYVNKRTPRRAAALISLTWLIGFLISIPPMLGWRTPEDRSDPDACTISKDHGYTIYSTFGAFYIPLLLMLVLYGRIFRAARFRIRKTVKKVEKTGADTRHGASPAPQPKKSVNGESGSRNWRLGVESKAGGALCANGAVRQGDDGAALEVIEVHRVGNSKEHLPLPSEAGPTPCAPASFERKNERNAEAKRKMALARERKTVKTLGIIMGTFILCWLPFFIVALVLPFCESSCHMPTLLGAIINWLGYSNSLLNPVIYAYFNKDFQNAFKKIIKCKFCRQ
Measured Quantity: pKi
Units for pKi: none; it is -log10 of a concentration expressed in mol/L.

>>> obs_value("COc1ccc(NC(=O)N2CCN(c3ccccc3)CC2)cc1N1CCN(C)CC1")
6.35

Req: Provide pKi value for the following molecule: `COc1ccc(NC(=O)c2ccc(-c3ccc(-c4noc(C)n4)cc3C)cc2)cc1N1CCN(C)CC1`
Resp: 7.14

###

Target: 5-hydroxytryptamine receptor 1A (Homo sapiens, UniProt P08908)
Sequence (P08908 whole entry): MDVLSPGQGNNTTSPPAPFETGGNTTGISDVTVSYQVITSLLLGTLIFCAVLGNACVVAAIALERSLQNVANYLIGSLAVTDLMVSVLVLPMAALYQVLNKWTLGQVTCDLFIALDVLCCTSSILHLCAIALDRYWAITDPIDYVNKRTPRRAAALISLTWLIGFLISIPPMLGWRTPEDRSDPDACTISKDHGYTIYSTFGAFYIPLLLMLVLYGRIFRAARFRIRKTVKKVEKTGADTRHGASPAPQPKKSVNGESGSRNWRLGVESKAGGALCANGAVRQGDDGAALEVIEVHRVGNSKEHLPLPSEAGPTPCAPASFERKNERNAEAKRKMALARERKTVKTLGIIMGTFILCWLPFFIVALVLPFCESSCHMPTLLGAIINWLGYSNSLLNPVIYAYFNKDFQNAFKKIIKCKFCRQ
pKi: −log10 of the molar value.
Measured Quantity: pKi

Worked set:
>>> obs_value("Cc1ccccc1N1CCN(C(=O)COc2ccc(Cl)c(N3CCN(C)CC3)c2)CC1")
"< 6.00"
>>> obs_value("Cc1ccccc1N1CCN(C(=O)Oc2ccc(Cl)c(N3CCN(C)CC3)c2)CC1")
"< 6.00"

In the following, a different compound is considered.
Req: Report pKi on 5-hydroxytryptamine receptor 1A (Homo sapiens, UniProt P08908) for this entry: `Cc1nc(-c2ccc(-c3ccc(C(=O)N4CCc5cc6c(cc54)C4(CCN(C)CC4)CO6)cc3)c(C)c2)no1`
Resp: < 6.00
